- TARGET ENTITY: Feline_OSMR_hlgG1_Fc (feline)
- Sequence (chain, as listed by the source limits assumed, form in doubt): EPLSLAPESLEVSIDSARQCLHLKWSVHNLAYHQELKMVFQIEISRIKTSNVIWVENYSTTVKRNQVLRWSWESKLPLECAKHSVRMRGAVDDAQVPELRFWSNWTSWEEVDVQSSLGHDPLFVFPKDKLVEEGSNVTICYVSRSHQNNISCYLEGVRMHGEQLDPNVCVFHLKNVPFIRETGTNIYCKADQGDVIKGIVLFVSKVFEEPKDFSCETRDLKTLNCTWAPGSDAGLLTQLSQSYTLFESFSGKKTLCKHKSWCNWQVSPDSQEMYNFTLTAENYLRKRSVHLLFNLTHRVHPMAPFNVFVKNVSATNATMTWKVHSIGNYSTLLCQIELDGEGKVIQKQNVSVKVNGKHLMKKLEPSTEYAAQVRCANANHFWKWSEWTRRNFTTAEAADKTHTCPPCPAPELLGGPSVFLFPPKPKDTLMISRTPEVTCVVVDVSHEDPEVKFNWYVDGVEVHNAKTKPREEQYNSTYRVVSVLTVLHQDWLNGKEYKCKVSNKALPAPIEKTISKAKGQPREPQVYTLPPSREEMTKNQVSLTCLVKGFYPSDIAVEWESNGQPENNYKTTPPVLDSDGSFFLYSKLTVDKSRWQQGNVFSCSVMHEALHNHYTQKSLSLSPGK
- EXPERIMENTAL PROTOCOL: SPR Biacore, OSMR on chip
kon values for the binders below.
OUTCOME MEASURE: kon (M⁻¹ s⁻¹)

# BINDER, OUTCOME MEASURE, VALUE
data = [
    ("mouse: canine 10F07 chimera (antibody, V domains shown) VH: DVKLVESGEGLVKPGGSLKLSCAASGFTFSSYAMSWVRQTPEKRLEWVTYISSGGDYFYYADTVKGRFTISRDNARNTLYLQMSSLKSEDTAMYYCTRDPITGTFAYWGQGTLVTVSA VL: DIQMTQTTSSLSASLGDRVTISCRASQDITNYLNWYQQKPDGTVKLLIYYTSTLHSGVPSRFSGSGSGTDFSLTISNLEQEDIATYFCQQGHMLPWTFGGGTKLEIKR", "kon", 20000),
    ("mouse: canine 19F07 chimera (antibody, V domains shown) VH: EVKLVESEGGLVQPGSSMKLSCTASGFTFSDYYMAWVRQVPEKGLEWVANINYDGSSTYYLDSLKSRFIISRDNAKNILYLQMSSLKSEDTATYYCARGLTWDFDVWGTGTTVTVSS VL: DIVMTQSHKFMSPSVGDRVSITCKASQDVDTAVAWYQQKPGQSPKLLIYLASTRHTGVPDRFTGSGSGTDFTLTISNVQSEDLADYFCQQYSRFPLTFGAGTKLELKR", "kon", 45100),
    ("mouse: canine 02D09 chimera (antibody, V domains shown) VH: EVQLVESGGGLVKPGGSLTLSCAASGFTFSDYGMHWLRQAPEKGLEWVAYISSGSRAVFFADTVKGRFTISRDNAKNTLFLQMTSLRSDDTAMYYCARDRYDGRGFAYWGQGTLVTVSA VL: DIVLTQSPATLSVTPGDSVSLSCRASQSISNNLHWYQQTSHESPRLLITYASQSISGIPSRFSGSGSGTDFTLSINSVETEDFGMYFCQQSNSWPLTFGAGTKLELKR", "kon", 142000),
]
